targetOrTestSystem: UniProt:Q9NWZ3
testDetails: IRAK4 kinase activity, IMAP fluorescence polarization assay
Type: biochemical
experimentalContext: 100 μM ATP; read-out: IRAK4 IC50
Quick list: IC50 per entry.
endpoint: IC50 (nM)

[[record]]
molecule = "O=c1[nH]c(N2CCOCC2)nc(N[C@@H]2CCCNC2)c1-c1nc(-c2cccc(F)c2)cs1"
endpoint = "IC50"
resultunits = "nM"
assayresult = 40

[[record]]
molecule = "CC(C)(C)c1cccc(-c2c(N[C@@H]3CCCNC3)nc(N3CCOCC3)[nH]c2=O)n1"
endpoint = "IC50"
resultunits = "nM"
assayresult = 537

[[record]]
molecule = "O=c1[nH]c(N2CC3CC2CS(=O)(=O)C3)nc(N[C@@H]2CCCNC2)c1-c1ccc2ccccc2n1 (stereo partly drawn)"
endpoint = "IC50"
resultunits = "nM"
assayresult = 139

[[record]]
molecule = "O=c1[nH]c(N2CCOC(C(F)(F)F)C2)nc(N[C@@H]2CCCNC2)c1-c1nc2ccccc2s1 (stereo partly drawn)"
endpoint = "IC50"
resultunits = "nM"
assayresult = 201

[[record]]
molecule = "O=c1[nH]c(N2CCOCC2)nc(N[C@@H]2CCCNC2)c1-c1ccccn1"
endpoint = "IC50"
resultunits = "nM"
assayresult = 4760

[[record]]
molecule = "Cc1cc(N2CCN(c3nc(N[C@@H]4CCCNC4)c(-c4nc5ccccc5s4)c(=O)[nH]3)CC2)sn1"
endpoint = "IC50"
resultunits = "nM"
assayresult = 8

[[record]]
molecule = "O=c1[nH]c(N2CCN(c3ccccc3F)CC2)nc(N[C@@H]2CCCNC2)c1-c1nc2ccccc2s1"
endpoint = "IC50"
resultunits = "nM"
assayresult = 16

[[record]]
molecule = "COC1CCN(c2nc(N[C@@H]3CCCNC3)c(-c3ccc4ccccc4n3)c(=O)[nH]2)C1 (stereo partly drawn)"
endpoint = "IC50"
resultunits = "nM"
assayresult = 26

[[record]]
molecule = "O=c1[nH]c(N2CCN(c3ncccn3)CC2)nc(N[C@@H]2CCCNC2)c1-c1nc2ccccc2s1"
endpoint = "IC50"
resultunits = "nM"
assayresult = 10


###

targetOrTestSystem: IRAK4 (Homo sapiens (Human), UniProt Q9NWZ3)
Sequence (Q9NWZ3 whole entry): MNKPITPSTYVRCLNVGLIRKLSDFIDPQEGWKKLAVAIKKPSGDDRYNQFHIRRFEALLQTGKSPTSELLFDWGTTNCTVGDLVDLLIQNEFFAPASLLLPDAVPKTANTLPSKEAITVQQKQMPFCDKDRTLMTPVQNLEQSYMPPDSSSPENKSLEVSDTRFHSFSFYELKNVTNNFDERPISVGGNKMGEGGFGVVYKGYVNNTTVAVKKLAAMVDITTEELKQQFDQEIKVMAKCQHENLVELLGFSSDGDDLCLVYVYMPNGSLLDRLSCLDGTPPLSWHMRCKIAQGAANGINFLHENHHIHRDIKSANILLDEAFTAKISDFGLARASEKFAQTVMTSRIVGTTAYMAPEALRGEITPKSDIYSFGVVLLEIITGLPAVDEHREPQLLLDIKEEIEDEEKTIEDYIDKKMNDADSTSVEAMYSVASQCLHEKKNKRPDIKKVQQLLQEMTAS
testDetails: IRAK4 kinase activity, IMAP fluorescence polarization assay
Assay type: biochemical
experimentalContext: 100 μM ATP, 0.5 nM GST tagged IRAK4; read-out: IRAK4 IC50
pIC50: −log10 of the molar value.
Label rule met for high-side pIC50 (at or above 7) and rule not met for low-side pIC50 (below it).

[[record]]
compound = "O=c1[nH]c(N[C@@H]2CCCNC2)nc(N[C@@H]2C[C@H](CO)[C@@H](O)[C@H]2O)c1-c1nc2ccccc2s1"
categorylabel = "rule not met"

[[record]]
compound = "O=c1[nH]c(N2CCOCC2)nc(N[C@@H]2CCCNC2)c1-c1ncc(F)cn1"
categorylabel = "rule not met"

[[record]]
compound = "CCc1nc(N[C@@H]2C[C@H](CO)[C@@H](O)[C@H]2O)c(-c2nc3ccccc3s2)c(=O)[nH]1"
categorylabel = "rule not met"

[[record]]
compound = "O=c1[nH]c(NC2CCC2)nc(N[C@@H]2C[C@H](CO)[C@@H](O)[C@H]2O)c1-c1cscn1"
categorylabel = "rule not met"

[[record]]
compound = "Cc1csc(-c2c(N[C@@H]3C[C@H](CO)[C@@H](O)[C@H]3O)nc(N3CCOCC3)[nH]c2=O)n1"
categorylabel = "rule met"

[[record]]
compound = "O=c1[nH]c(N2CCOCC2)nc(NC2CCNC2)c1-c1nc2ccccc2s1 (centres unmarked)"
categorylabel = "rule not met"

[[record]]
compound = "Cc1nccc2sc(-c3c(N[C@@H]4C[C@H](CO)[C@@H](O)[C@H]4O)nc(N4CCOCC4)[nH]c3=O)nc12"
categorylabel = "rule met"

[[record]]
compound = "O=c1[nH]c(NC2CCC2)nc(N[C@@H]2CC[C@@H](O)[C@H]2O)c1-c1nc2ccccc2s1"
categorylabel = "rule not met"

[[record]]
compound = "Cc1cccc(-c2c(N[C@@H]3C[C@H](CO)[C@@H](O)[C@H]3O)nc(N3CCCCC3)[nH]c2=O)n1"
categorylabel = "rule not met"

[[record]]
compound = "C[C@H]1C[C@@H](Nc2nc(N3CCOCC3)[nH]c(=O)c2-c2nc3ccccc3s2)[C@H](O)[C@@H]1O"
categorylabel = "rule met"

[[record]]
compound = "O=c1[nH]c(NC2CCC2)nc(N[C@@H]2C[C@H](CO)[C@@H](O)[C@H]2O)c1-c1nc2ccccc2s1"
categorylabel = "rule met"

[[record]]
compound = "Nc1nc(N[C@@H]2C[C@H](CO)[C@@H](O)[C@H]2O)c(-c2nc3ccccc3s2)c(=O)[nH]1"
categorylabel = "rule not met"

[[record]]
compound = "Cc1cccc(-c2c(N[C@@H]3CCCNC3)nc(N3CCOCC3)[nH]c2=O)n1"
categorylabel = "rule not met"

[[record]]
compound = "Cc1nccc2sc(-c3c(N[C@@H]4CCCNC4)nc(N4CCOCC4)[nH]c3=O)nc12"
categorylabel = "rule met"

[[record]]
compound = "O=c1[nH]c(NC2CCOCC2)nc(N[C@@H]2C[C@H](CO)[C@@H](O)[C@H]2O)c1-c1nc2ccccc2s1"
categorylabel = "rule not met"

[[record]]
compound = "O=c1[nH]c(N2CCOCC2)nc(N[C@@H]2CCCNC2)c1-c1nc(-c2ccc(OC(F)(F)F)cc2)cs1"
categorylabel = "rule not met"

[[record]]
compound = "N#Cc1ccc2sc(-c3c(N[C@@H]4CCCNC4)nc(N4CCOCC4)[nH]c3=O)nc2c1"
categorylabel = "rule met"

[[record]]
compound = "O=c1[nH]c(N2CCOCC2)nc(N[C@@H]2CCCNC2)c1-c1nc2cc(Br)ccc2s1"
categorylabel = "rule met"


###

Recorded measurements of IC50, one per entry
targetOrTestSystem: IRAK4 (Homo sapiens (Human))
testDetails: IRAK4 kinase activity, IMAP fluorescence polarization assay
Type: biochemical
experimentalContext: 100 μM ATP, 0.5 nM GST tagged IRAK4; read-out: IRAK4 IC50
endpoint: IC50 (nM)

[[record]]
compound = "O=c1[nH]c(N2CCOCC2)nc(N[C@@H]2CCCNC2)c1-c1nc2cc(C3CC3)ccc2s1 [Example 346, trifluoroacetic acid]"
endpoint = "IC50"
assayresult = 330

[[record]]
compound = "O=c1[nH]c(N2CCOCC2)nc(N[C@@H]2CCCNC2)c1-c1nccs1 [Example 101]"
endpoint = "IC50"
assayresult = 1830

[[record]]
compound = "O=C1NCCCC[C@H]1Nc1nc(N2CCOCC2)[nH]c(=O)c1-c1nc2ccccc2s1 [Example 91]"
endpoint = "IC50"
assayresult = 2430

[[record]]
compound = "O=c1[nH]c(N2CCOCC2)nc(N[C@@H]2CCCNC2)c1-c1nc2cccc(C(F)(F)F)c2s1 [Example 338]"
endpoint = "IC50"
assayresult = 520

[[record]]
compound = "CN1CCN(c2nc(N[C@@H]3CCCNC3)c(-c3nc4c(C5CC5)nccc4s3)c(=O)[nH]2)CC1 [Example 120]"
endpoint = "IC50"
assayresult = 30

[[record]]
compound = "O=c1[nH]c(N2CC3(CNC3)C2)nc(N[C@@H]2C[C@H](CO)[C@@H](O)[C@H]2O)c1-c1nc2ccccc2s1 [Example 16]"
endpoint = "IC50"
assayresult = 6.5


###

targetOrTestSystem: IRAK4 (Homo sapiens (Human))
testDetails: IRAK4 kinase activity, IMAP fluorescence polarization assay
Format: biochemical
experimentalContext: 100 μM ATP; read-out: IC50
pIC50: −log10 of the molar value.
endpoint: pIC50

[[record]]
compound = "O=c1[nH]c(C2CCN(C3CCCC3)CC2)nc(N[C@@H]2CCCNC2)c1-c1nc2ccccc2s1 [Example 231]"
assayresult = 6.21

[[record]]
compound = "O=c1[nH]c(N2CCC3(CCN(c4ccc(Cl)cc4)C3)C2)nc(N[C@@H]2CCCNC2)c1-c1nc2ccccc2s1 (some centres unmarked) [Example 331, trifluoroacetic acid]"
assayresult = 7.33

[[record]]
compound = "COc1ccc(N2CCC3(CCN(c4nc(N[C@@H]5CCCNC5)c(-c5nc6ccccc6s5)c(=O)[nH]4)C3)C2)cc1 (some centres unmarked) [Example 330]"
assayresult = 7.68

[[record]]
compound = "COCC1CN(c2nc(N[C@@H]3CCCNC3)c(-c3nc4ccccc4s3)c(=O)[nH]2)CCO1 (some centres unmarked) [Example 286]"
assayresult = 7.09

[[record]]
compound = "CCC(CO)Nc1nc(N2CCOCC2)[nH]c(=O)c1-c1nc2ccccc2s1 (centres unmarked) [Example 262]"
assayresult = 6.48

[[record]]
compound = "N#Cc1ccc(-c2c(N[C@@H]3CCCNC3)nc(N3CCOCC3)[nH]c2=O)nc1 [Example 223]"
assayresult = 7.09

[[record]]
compound = "CN1CCCC(Nc2nc(N3CCOCC3)[nH]c(=O)c2-c2ccc3ccccc3n2)C1 (centres unmarked) [Example 274]"
assayresult = 6.14

[[record]]
compound = "O=c1[nH]c(N2CCOCC2)nc(NC2CN3CCC2CC3)c1-c1nc2ccccc2s1 (centres unmarked) [Example 208]"
assayresult = 7.30

[[record]]
compound = "O=c1[nH]c(C2CCN(c3cccnc3)CC2)nc(N[C@@H]2CCCNC2)c1-c1nc2ccccc2s1 [Example 245]"
assayresult = 7.05

[[record]]
compound = "O=c1[nH]c(N2CCOCC2)nc(N[C@@H]2CCCNC2)c1-c1cc2ccccc2cn1 [Example 225]"
assayresult = 6.33

[[record]]
compound = "CC(=O)N1CCC2(CCN(c3nc(N[C@@H]4CCCNC4)c(-c4nc5ccccc5s4)c(=O)[nH]3)C2)C1 (some centres unmarked) [Example 326]"
assayresult = 7.89

[[record]]
compound = "CCS(=O)(=O)N1CCC(c2nc(N[C@@H]3CCCNC3)c(-c3nc4ccccc4s3)c(=O)[nH]2)CC1 [Example 236]"
assayresult = 6.26

[[record]]
compound = "O=C(NC1CCN(c2nc(N[C@@H]3CCCNC3)c(-c3nc4ccccc4s3)c(=O)[nH]2)CC1)OCc1ccccc1 [Example 323, trifluoroacetic acid]"
assayresult = 7.00

[[record]]
compound = "O=c1[nH]c(N2CCOCC2)nc(NCCN2CCC(O)CC2)c1-c1ccc2ccccc2n1 [Example 282]"
assayresult = 5.66

[[record]]
compound = "O=c1[nH]c(N2CCOCC2)nc(N[C@@H]2CCCNC2)c1-c1cccc(-n2cccc2)n1 [Example 215]"
assayresult = 6.73

[[record]]
compound = "CC(C)C[C@H](CO)Nc1nc(N2CCOCC2)[nH]c(=O)c1-c1nc2ccccc2s1 [Example 266]"
assayresult = 5.60

[[record]]
compound = "O=c1[nH]c(C2CCN(c3cnccn3)CC2)nc(N[C@@H]2CCCNC2)c1-c1nc2ccccc2s1 [Example 243]"
assayresult = 6.74

[[record]]
compound = "O=c1[nH]c(N2CCOCC2)nc(N[C@H]2CNCC(F)(F)C2)c1-c1nc2ccccc2s1 [Example 212]"
assayresult = 6.10

[[record]]
compound = "C[C@@H]1C[C@@H](Nc2nc(N3CCOCC3)[nH]c(=O)c2-c2nc3ccccc3s2)CN1 [Example 210]"
assayresult = 6.82

[[record]]
compound = "O=c1[nH]c(N2CCCC2)nc(N[C@@H]2CCCNC2)c1-c1nc2ccccc2s1 [Example 295]"
assayresult = 7.96

